Target: human TPH1 (Homo sapiens (Human), UniProt P17752)
Sequence (P17752 whole entry): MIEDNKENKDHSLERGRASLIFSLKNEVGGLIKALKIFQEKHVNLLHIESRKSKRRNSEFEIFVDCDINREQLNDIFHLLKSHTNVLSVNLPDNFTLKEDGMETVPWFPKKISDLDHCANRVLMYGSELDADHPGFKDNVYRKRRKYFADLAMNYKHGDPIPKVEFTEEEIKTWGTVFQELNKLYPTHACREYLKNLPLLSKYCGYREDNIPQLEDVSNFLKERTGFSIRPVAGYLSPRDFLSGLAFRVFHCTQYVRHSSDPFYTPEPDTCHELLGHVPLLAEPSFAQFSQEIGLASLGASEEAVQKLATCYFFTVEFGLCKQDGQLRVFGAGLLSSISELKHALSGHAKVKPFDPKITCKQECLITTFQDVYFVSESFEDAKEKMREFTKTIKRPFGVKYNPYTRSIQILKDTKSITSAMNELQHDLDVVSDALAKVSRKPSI
Experiment: Biochemical in vitro assay using fluorescence readout (TPH1 inhibition)
Settings: human TPH1, fluorescence readout
Measured pIC50, listed per entry.
Units for pIC50: none; it is -log10 of a concentration expressed in mol/L.

compound	test.value
CNC(=O)c1cc(F)c(C2c3c(nc4sc(C)nn34)CCN2C(=O)COc2ccc(NS(C)(=O)=O)nc2Cl)s1 (stereo not shown) [Example 1.25.7]	8.15
CCc1nc(NS(C)(=O)=O)ccc1OCC(=O)N1CCc2nc3sc(C(F)(F)F)nn3c2C1c1ncc(C)cc1F (stereo not shown) [Example 5.2.2]	7.38
Cc1nn2c3c(nc2s1)CCN(C(=O)COc1ccc(C(=O)N(C)C)nc1Cl)C3c1sc(C(=O)N(C)C)cc1F (stereo not shown) [Example 1.24.7]	8.30

Kindly review the next compound as well.
Q: Look at this compound and give its reported pIC50. Cc1nn2c3c(nc2s1)CCN(C(=O)COc1ccc(N2CCOCC2)nc1Cl)C3c1cc(CN(C)C)cs1 (stereo not shown) [Example 1.8.1]
Ans: 7.74

* * *

Biological target: human TPH1 (Homo sapiens (Human), UniProt P17752)
Experiment: Biochemical in vitro assay using fluorescence readout (TPH1 inhibition)
Settings: human TPH1, fluorescence readout
In plain terms, low IC50, meaning strictly below 7 nM, gives 1, and everything else gives 0.

compound	assayed.target	assigned.class
O=C(COc1ccc(CN2CCOCC2)nc1Cl)N1CCc2nc3sccn3c2C1c1cc2cccnc2s1 (stereo not drawn)	human TPH1 (Homo sapiens (Human), UniProt P17752)	0
Cc1nn2c3c(nc2s1)CCN(C(=O)COc1ccc(NS(=O)(=O)N(C)C)nc1Cl)C3c1ccc(Cl)cc1F (stereo not drawn)	human TPH1 (Homo sapiens (Human), UniProt P17752)	0

Q: State whether 7 nM exceeds IC50 recorded for Cc1nn2c3c(nc2s1)CCN(C(=O)COc1ccc(C(=O)N(C)C2CC2)nc1Cl)C3c1ccc(C2CC2)cc1F (stereo not drawn) .
Ans: 0

Q: State whether 7 nM exceeds IC50 recorded for O=C(COc1ccccc1C(F)(F)F)N1CCc2nc3sccn3c2C1c1cccnc1F (stereo not drawn) .
Ans: 0

Q: State whether 7 nM exceeds IC50 recorded for Cc1nn2c3c(nc2s1)CCN(C(=O)COc1cc(F)c(I)nc1Cl)C3c1ncc(C2CC2)cc1F (stereo not drawn) .
Ans: 1

Q: State whether 7 nM exceeds IC50 recorded for Cc1cc(Cl)ccc1OCC(=O)N1CCc2nc3sccn3c2C1c1nc2ccccc2s1 (stereo not drawn) .
Ans: 0

* * *

Measured pIC50, listed per entry.
Biological target: human TPH1 (Homo sapiens (Human))
Test: Biochemical in vitro assay using fluorescence readout (TPH1 inhibition)
Settings: human TPH1, fluorescence readout
Units for pIC50: none; it is -log10 of a concentration expressed in mol/L.

compound	pIC50
CN(C)C(=O)c1ccc(OCC(=O)N2CCc3nc4sccn4c3C2c2sc(C(=O)N(C)C)cc2F)c(Cl)n1 (stereo not shown)	8.30
Cc1nn2c3c(nc2s1)CCN(C(=O)COc1ccc(CN2CCOCC2)nc1Cl)C3c1cccnc1F (stereo not shown)	6.68
Cc1nn2c3c(nc2s1)CCN(C(=O)COc1ccc(C(=O)N(C)C)nc1Cl)C3c1cccc(Cl)c1F (stereo not shown)	7.38

Kindly review the next compound as well.
Q: Look at this compound and give its reported pIC50. CCc1nc(N2CCCS2(=O)=O)ccc1OCC(=O)N1CCc2nc3sc(C(F)F)nn3c2C1c1sc(C)nc1C (stereo not shown)
Ans: 7.89
